test system: Salmonella typhimurium; test: Antimicrobial activity against Salmonella typhimurium ATCC 07095 at 200 ug after overnight incubation by disk-diffusion method; assay type: functional, Salmonella enterica subsp. enterica serovar Typhimurium; conditions: Salmonella enterica, read-out: DIZ
Measured zone of inhibition at 200 µg/disc by item
In your response, the unit should come after the numeric value.

Worked cases, answers included:
smiles-str | quantity-measured | value-reported
Cc1n(C)c(I)c(I)[n+]1CC(=O)c1ccccc1.[Br-] | zone of inhibition at 200 µg/disc | 8 mm
Cc1n(C)c([N+](=O)[O-])c[n+]1CC(=O)c1ccccc1.[Br-] | zone of inhibition at 200 µg/disc | 7 mm

Name the recorded zone of inhibition at 200 µg/disc for Cn1c[n+](CC(=O)c2ccccc2)c(I)c1I.[Br-] .
9 mm

Same for Cn1c(Br)c(Br)[n+](CC(=O)c2ccccc2)c1-c1ccccc1.[Br-]
7 mm

Same for CCOC(=O)C[n+]1c(Br)c(Br)n(C)c1-c1ccccc1.[Br-]
7 mm

Same for Cc1n(C)c(Br)c(Br)[n+]1CC(=O)c1ccccc1.[Br-]
7 mm

====

test system: Escherichia coli; test: Antimicrobial activity against Escherichia coli ATTC-25922 after 1 day by agar dilution method; assay type: functional; conditions: ATTC-25922, 24 h
quantity-measured: MIC (µg/mL)
Respond numerically; units are µg/mL and should not be typed.

smiles-str | target-or-test-system | MIC [µg/mL]
CCOC(=O)C[n+]1c(Br)c(Br)n(C)c1CO.[Br-] | Escherichia coli | 150
Cc1n(C)c(I)c(I)[n+]1CC(=O)c1ccccc1.[Br-] | Escherichia coli | 12.5
Cn1c(Br)c(Br)[n+](CC(=O)c2ccccc2)c1CO.[Br-] | Escherichia coli | 25
Cn1c(Br)c(Br)[n+](CC(=O)c2ccccc2)c1-c1ccccc1.[Br-] | Escherichia coli | 50
CCOC(=O)C[n+]1c(I)c(I)n(C)c1C.[Br-] | Escherichia coli | 25
Cc1n(C)c(Br)c(Br)[n+]1CC(=O)c1ccccc1.[Br-] | Escherichia coli | 12.5
CCOC(=O)C[n+]1c(Br)c(Br)n(C)c1C.[Br-] | Escherichia coli | 25
Cc1n(C)c([N+](=O)[O-])c[n+]1CC(=O)c1ccccc1.[Br-] | Escherichia coli | 50

Give recorded MIC with Escherichia coli for the following molecule: CCOC(=O)C[n+]1cn(C)c(I)c1I.[Br-]
6.2

Same for Cn1c[n+](CC(=O)c2ccccc2)c(I)c1I.[Br-]
25

Same for Cn1c[n+](CC(=O)c2ccccc2)cc1[N+](=O)[O-].[Br-]
12.5

Same for CCOC(=O)C[n+]1c(Br)c(Br)n(C)c1-c1ccccc1.[Br-]
50

====

test system: Pseudomonas aeruginosa; assay: Antimicrobial activity against Pseudomonas aeruginosa ATCC 27853 after 1 day by agar dilution method; format: functional; settings: ATCC 27853, 24 h
quantity-measured: MIC (µg/mL)
Respond numerically; units are µg/mL and should not be typed.

smiles-str | unit-name | MIC
CCOC(=O)C[n+]1c(Br)c(Br)n(C)c1CO.[Br-] | µg/mL | 25
CCOC(=O)C[n+]1cn(C)c(I)c1I.[Br-] | µg/mL | 6.2
Cn1c(Br)c(Br)[n+](CC(=O)c2ccccc2)c1CO.[Br-] | µg/mL | 50
CCOC(=O)C[n+]1c(Br)c(Br)n(C)c1-c1ccccc1.[Br-] | µg/mL | 25

Next up:
Name the recorded MIC for Cn1c[n+](CC(=O)c2ccccc2)c(I)c1I.[Br-] .
25
